Entries and their measured GI50 follow.
- Test system: LOX IMVI
- experimental.details: NCI-60 SRB growth inhibition, one-dose and five-dose
- Format: cell-based
- setup.conditions: Homo sapiens
assay.endpoint: GI50 (nM)

>>> observed_value("COc1ccc(CNc2cccc(C(=O)/C=C/c3cccnc3)c2)cc1OC")
1760
>>> observed_value("CC(=O)Nc1ccc(/C=C/C(=O)c2cccc(NCc3ccc(CO)cc3)c2)cc1")
2960
>>> observed_value("CC(=O)Nc1ccc(CNc2cccc(C(=O)/C=C/c3cccnc3)c2)cc1")
1650
>>> observed_value("CC(=O)Nc1ccc(/C=C/C(=O)c2cccc(NCc3ccc(NC(C)=O)cc3)c2)cc1")
1900
>>> observed_value("O=C(/C=C/c1cccnc1)c1cccc(NCc2ccc(CO)cc2)c1")
1760

###

// values below are reported GI50
- Test system: EKVX
- experimental.details: NCI-60 SRB growth inhibition, one-dose and five-dose
- Assay type: cell-based
- setup.conditions: Homo sapiens
assay.endpoint: GI50 (µM)

>>> observed_value("O=C(/C=C/c1cccnc1)c1cccc(NCc2csc3ccccc23)c1")
3.98
>>> observed_value("CC(=O)Nc1ccc(/C=C/C(=O)c2cccc(NCc3ccc(CO)cc3)c2)cc1")
14.4
>>> observed_value("COc1ccc(CNc2cccc(C(=O)/C=C/c3ccc(NC(C)=O)cc3)c2)cc1OC")
4.09
>>> observed_value("CC(=O)Nc1ccc(/C=C/C(=O)c2cccc(NCc3csc4ccccc34)c2)cc1")
10.8

###

- Test system: NCI 60-cell line panel (full panel)
- experimental.details: NCI-60 SRB growth inhibition, full panel mean / MG-MID
- Format: cell-based, human
- setup.conditions: mean over NCI-60 panel; single dose 10 µM
// reported Full panel Mean GI % for each item listed
assay.endpoint: Full panel Mean GI %

>>> observed_value("CC(=O)Nc1ccc(CNc2cccc(C(=O)/C=C/c3cccnc3)c2)cc1")
"123.16%"
>>> observed_value("CC(=O)Nc1ccc(/C=C/C(=O)c2cccc(NCc3ccc(C)cc3)c2)cc1")
"61.75%"
>>> observed_value("CC(=O)Nc1ccc(/C=C/C(=O)c2cccc(NCc3ccc4oc(=O)ccc4c3)c2)cc1")
"39.00%"
>>> observed_value("COc1ccc(CNc2cccc(C(=O)/C=C/c3cccnc3)c2)cc1OC")
"87.75%"
>>> observed_value("O=C(/C=C/c1cccnc1)c1cccc(NCc2ccc(CO)cc2)c1")
"86.06%"
>>> observed_value("COc1ccc(CNc2cccc(C(=O)/C=C/c3ccc(NC(C)=O)cc3)c2)cc1OC")
"108.5%"
>>> observed_value("Cc1ccc(CNc2cccc(C(=O)/C=C/c3cccnc3)c2)cc1")
"82.76%"

###

Attribute: GI50
- Tested on: A549/ATCC
- experimental.details: NCI-60 SRB growth inhibition, one-dose and five-dose
- Format: cell-based
- setup.conditions: Homo sapiens, A549
assay.endpoint: GI50 (µM)

>>> observed_value("CC(=O)Nc1ccc(/C=C/C(=O)c2cccc(NCc3csc4ccccc34)c2)cc1 [Compound 5i]")
17
>>> observed_value("CC(=O)Nc1ccc(/C=C/C(=O)c2cccc(NCc3ccc(CO)cc3)c2)cc1 [Compound 5j]")
17.2
>>> observed_value("COc1ccc(CNc2cccc(C(=O)/C=C/c3cccnc3)c2)cc1OC [Compound 5c]")
17.2
>>> observed_value("CC(=O)Nc1ccc(/C=C/C(=O)c2cccc(NCc3ccc(C)cc3)c2)cc1 [Compound 5f]")
24.6
>>> observed_value("CC(=O)Nc1ccc(/C=C/C(=O)c2cccc(NCc3ccc(NC(C)=O)cc3)c2)cc1 [Compound 5g]")
15.8
>>> observed_value("COc1ccc(CNc2cccc(C(=O)/C=C/c3ccc(NC(C)=O)cc3)c2)cc1OC [Compound 5h]")
23.6
>>> observed_value("CC(=O)Nc1ccc(CNc2cccc(C(=O)/C=C/c3cccnc3)c2)cc1 [Compound 5b]")
14.9
